Each entry below carries its recorded logP.
Note: the reply should be a number with no unit written.

Guide cases for logP, answers given:
                                   compound  metric_name  endpoint_result
0                                   CC(C)CN         logP             0.73
1  CC1(C)O[C@@H]2C[C@H]3[C@@H]4C[C@H](F)C5=CC(=O)C=C[C@]5(C)[C@@]4(F)[C@@H](O)C[C@]3(C)[C@]2(C(=O)CO)O1         logP             2.48
2                        CNC(=O)Oc1ccccc1OC         logP             0.81
3                      Cc1ccc(C(=O)O)c(O)c1         logP             2.99
4  COc1cccc(C(=O)NC2CC3CCC(C2)N3Cc2ccccc2)c1OC (stereo not drawn)         logP             3.24
5                    COC(=O)CNC(=O)c1ccccc1         logP             0.82
6   CN1C(=O)SC(=Cc2ccc([N+](=O)[O-])o2)C1=O         logP             1.78
7   COP1(=S)OCc2ccccc2O1 (stereo not drawn)         logP             2.67

Shifting focus to the compound that follows.
Request: Name the recorded logP for CCC(N)=O .
Response: -0.66

---

We label by threshold. Values of logP strictly beneath 3 are label 1. Values of 3 and up are label 0.

Study these solved cases before continuing.
>>> print(df.to_string())
                                  molecule  discrete_label
0       CCOC(=O)C(=Cc1cccc(OCC)c1)C(=O)OCC         label 0
1                     CCCc1cc(C(=O)NN)ccn1         label 1
2                          CC(=O)Nc1cccnc1         label 1
3                                 NC(=O)CF         label 1
4                       O=C(O)Cc1ccc(I)cc1         label 1
5  CC1CCC(O)CC1 (configuration not stated)         label 1
6                             CCc1ccccc1CC         label 0
7                        O=C(O)CSCc1ccccc1         label 1
8                        N#Cc1ccnc2ccccc12         label 1
9        N#Cc1cc(-c2ccccc2)nnc1NCCN1CCOCC1         label 1

Request: Would you kindly verify if logP of C=CC=CCC is strictly less than 3?
Response: label 0

Request: Would you kindly verify if logP of CCC(C)N(C(=O)SCc1ccccc1)C(C)CC (configuration not stated) is strictly less than 3?
Response: label 0

Request: Would you kindly verify if logP of CCCCCC(C)(C)c1ccc(C2CCCC(O)C2)c(O)c1 (configuration not stated) is strictly less than 3?
Response: label 0

Request: Would you kindly verify if logP of CC(=O)C(F)(F)F is strictly less than 3?
Response: label 1

Request: Would you kindly verify if logP of CO is strictly less than 3?
Response: label 1

Request: Would you kindly verify if logP of S=C=NCCc1ccccc1 is strictly less than 3?
Response: label 0

Request: Would you kindly verify if logP of Cc1ccno1 is strictly less than 3?
Response: label 1

Data origin: the OPERA property sets (Mansouri et al. 2018)
